Data credit: patent US20240279228A1

# Procedure Details: Solubility of Compound A free base in solvents
# Assay type: physicochemical
# Condition Set: organic solvent or mixture; free base; methanol; read-out: Solubility in methanol
Experimental Endpoint: solubility

Inquiry: So what does the record say about solubility for O=C1CN2c3c(cccc3[C@@H]3CN(CCCOc4ccc(F)cc4)CC[C@@H]32)N1 ?
Reply text: < 11 mg/mL

----------
# Procedure Details: Colour and chemical stability of the solid salt in air
# Type: physicochemical
# Condition Set: tosylate salt product of process experiment
Experimental Endpoint: Colorization

O=C1CN2c3c(cccc3[C@@H]3CN(CCCOc4ccc(F)cc4)CC[C@@H]32)N1 [Compound 5-4]    No
O=C1CN2c3c(cccc3[C@@H]3CN(CCCOc4ccc(F)cc4)CC[C@@H]32)N1 [Compound 3-2]    Yes
O=C1CN2c3c(cccc3[C@@H]3CN(CCCOc4ccc(F)cc4)CC[C@@H]32)N1 [Compound 5-1]    No
O=C1CN2c3c(cccc3[C@@H]3CN(CCCOc4ccc(F)cc4)CC[C@@H]32)N1 [Compound 5-3]    No

Now consider the entry below.
Inquiry: Reported Colorization for O=C1CN2c3c(cccc3[C@@H]3CN(CCCOc4ccc(F)cc4)CC[C@@H]32)N1 [Compound 5-2] : what is it?
Reply text: No
